Attribution: patent US20040176568A1

- TEST_TARGET: T1, human PTH-1 receptor (human, UniProt Q03431 27-593)
- T1 construct: whole, on cells; recombinant receptor on cells; also called human type 1 PTH/PTHrP receptor; human PTHR
- T1 sequence (looked up): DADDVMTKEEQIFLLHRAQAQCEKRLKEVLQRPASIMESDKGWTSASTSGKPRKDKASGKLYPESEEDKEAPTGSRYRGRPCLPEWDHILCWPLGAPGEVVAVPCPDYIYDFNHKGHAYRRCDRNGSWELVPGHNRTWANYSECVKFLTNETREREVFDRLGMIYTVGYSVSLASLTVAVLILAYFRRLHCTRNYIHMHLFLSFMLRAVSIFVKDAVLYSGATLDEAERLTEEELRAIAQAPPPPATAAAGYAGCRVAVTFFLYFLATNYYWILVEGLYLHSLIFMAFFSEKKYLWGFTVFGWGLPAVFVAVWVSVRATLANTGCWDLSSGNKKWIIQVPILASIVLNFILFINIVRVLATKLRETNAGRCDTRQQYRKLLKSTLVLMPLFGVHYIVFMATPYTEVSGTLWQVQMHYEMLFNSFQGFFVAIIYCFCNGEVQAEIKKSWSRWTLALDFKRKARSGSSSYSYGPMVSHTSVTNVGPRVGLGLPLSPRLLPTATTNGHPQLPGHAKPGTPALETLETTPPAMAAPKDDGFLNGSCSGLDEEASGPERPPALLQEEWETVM
- PROCEDURE_DETAILS: radioligand competition, HKRK B7 cells (human PTH-1 receptor)
- Text: Cell layers were washed three times before solubilization for determination of cell-associated radioactivity.
No end group written: not given here.
QUANTITY: IC50 (nM)

a: SVSEIQLMHNLGKHLNSMERVEWLRKKL-NH2 [hPTH-(1-28)]
b: SVSEIQLMHNLGKHLNSMRRVEWLRKKL-NH2 (Analog of hPTH-(1-28)) [[Arg^19]hPTH-(1-28)]
Query: Between a and b , which one shows the larger IC50 value? Bench note: the answer is the label of the chosen record.
Result: a
